# ASSAY PROCEDURE: Volume of distribution at steady state in rhesus monkey at 0.5 mg/kg, iv and 2 mg/kg, po
# Type: ADME, organism-based, Macaca mulatta
# CONDITION SET: in vivo, read-out: Vdss
QUANTITY KIND: Vd (L/kg)
Please state the figure in L/kg; there is no need to write the unit.

Form field: reported Vd of O=C(O)CCNC(=O)c1ccc(Cn2nc(-c3cc(Cl)cc(Cl)c3)cc2-c2ccc(OC(F)(F)F)cc2)cc1
0.55

----------
# ASSAY PROCEDURE: Cmax in mouse at 2 mg/kg, po
# Format: ADME, organism-based
# Parameters: dose 2 mg/kg, route oral
# CONDITION SET: in vivo
QUANTITY KIND: Cmax (nM)
Expressed in nM, but write only the number.

If you can, please state the reported Cmax value of O=C(O)CCNC(=O)c1ccc(Cn2nc(-c3cc(Cl)cc(Cl)c3)cc2-c2ccc(OC(F)(F)F)cc2)cc1 .
230

----------
# TESTED SYSTEM: Gastric inhibitory polypeptide receptor (Homo sapiens) (UniProt P48546)
# Sequence (whole entry): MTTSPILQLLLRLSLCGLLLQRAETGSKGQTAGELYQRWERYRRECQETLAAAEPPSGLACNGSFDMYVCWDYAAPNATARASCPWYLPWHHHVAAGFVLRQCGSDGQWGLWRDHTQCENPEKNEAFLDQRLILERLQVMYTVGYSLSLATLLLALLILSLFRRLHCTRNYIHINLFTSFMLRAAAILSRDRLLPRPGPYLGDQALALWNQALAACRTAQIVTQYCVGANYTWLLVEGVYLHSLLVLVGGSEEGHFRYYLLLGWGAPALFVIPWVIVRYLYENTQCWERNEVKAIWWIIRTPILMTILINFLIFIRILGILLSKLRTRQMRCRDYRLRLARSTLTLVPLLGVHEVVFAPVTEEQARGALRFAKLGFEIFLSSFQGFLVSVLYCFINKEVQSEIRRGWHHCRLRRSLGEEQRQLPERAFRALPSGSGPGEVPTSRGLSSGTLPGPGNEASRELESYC
# ASSAY PROCEDURE: Antagonist activity at human GIPR expressed in CHO cells assessed as inhibition of glucagon-induced cAMP accumulation at 10 uM
# Assay type: functional, cell-based
Please use condition met whenever inhibition is not below 20%, and condition not met whenever it is.

Check this compound for inhibition at or above 20%: O=C(Nc1nn[nH]n1)c1ccc(Cc2cc(-c3ccc(OC(F)(F)F)cc3)n(C3CCCCC3)n2)cc1
condition met

Determine whether this compound has inhibition no lower than 20%: O=C(O)CCNC(=O)c1ccc(Cc2cc(-c3ccc(OC(F)(F)F)cc3)nn2C2CCCCC2)cc1
condition met

Next:
Does the reported inhibition for O=C(O)CNC(=O)c1ccc(Cn2nc(-c3ccc(OC(F)(F)F)cc3)cc2-c2ccc(OC(F)(F)F)cc2)cc1 fall at or above the 20% mark?
condition not met

inhibition >= 20% for CC(c1ccc(C(=O)NCCC(=O)O)cc1)n1nc(-c2ccc(OC(F)(F)F)cc2)cc1-c1ccc(OC(F)(F)F)cc1 (stereo not drawn) ?
condition met

Is the recorded value of inhibition equal to or greater than 20% for this compound? O=C(O)CCNC(=O)c1cccc(Cn2nc(-c3ccc(OC(F)(F)F)cc3)cc2-c2ccc(OC(F)(F)F)cc2)c1
condition met

----------
# TESTED SYSTEM: Gastric inhibitory polypeptide receptor (Homo sapiens, UniProt P48546)
# ASSAY PROCEDURE: Antagonist activity at human GIPR expressed in CHO cells assessed as inhibition of glucagon-induced cAMP accumulation
QUANTITY KIND: pIC50
Lab note: report pIC50 as minus log10 of the concentration in molar units, number only.

Consider the compound shown here: O=C(Nc1nnn[nH]1)c1ccc(Cn2nc(-c3cc(Cl)cc(Cl)c3)cc2-c2ccc(OC(F)(F)F)cc2)cc1 What is its recorded pIC50?
5.15

Consider the compound shown here: CC(C)(C)[C@H]1CC[C@H](c2cc(-c3ccc(OC(F)(F)F)cc3)nn2Cc2ccc(C(=O)Nc3nnn[nH]3)cc2)CC1 What is its recorded pIC50?
5.24

Entry O=C(O)CCNC(=O)c1ccc(Cc2cn(-c3ccc(OC(F)(F)F)cc3)nc2C2CCCCC2)cc1 has what pIC50?
5.13

----------
# ASSAY PROCEDURE: Antagonist activity at rhesus monkey GCGR assessed as inhibition of glucagon-induced cAMP accumulation
# Format: functional, Macaca mulatta
QUANTITY KIND: pIC50
Worth noting: pIC50 values are minus log10 of concentrations stated in mol/L.

// pIC50 lookup, key: O=C(O)CCNC(=O)c1ccc(Cn2nc(-c3cc(Cl)cc(Cl)c3)cc2-c2ccc(OC(F)(F)F)cc2)cc1
6.85

----------
# TESTED SYSTEM: Glucagon receptor (Homo sapiens, UniProt P47871)
# Sequence (P47871 whole entry): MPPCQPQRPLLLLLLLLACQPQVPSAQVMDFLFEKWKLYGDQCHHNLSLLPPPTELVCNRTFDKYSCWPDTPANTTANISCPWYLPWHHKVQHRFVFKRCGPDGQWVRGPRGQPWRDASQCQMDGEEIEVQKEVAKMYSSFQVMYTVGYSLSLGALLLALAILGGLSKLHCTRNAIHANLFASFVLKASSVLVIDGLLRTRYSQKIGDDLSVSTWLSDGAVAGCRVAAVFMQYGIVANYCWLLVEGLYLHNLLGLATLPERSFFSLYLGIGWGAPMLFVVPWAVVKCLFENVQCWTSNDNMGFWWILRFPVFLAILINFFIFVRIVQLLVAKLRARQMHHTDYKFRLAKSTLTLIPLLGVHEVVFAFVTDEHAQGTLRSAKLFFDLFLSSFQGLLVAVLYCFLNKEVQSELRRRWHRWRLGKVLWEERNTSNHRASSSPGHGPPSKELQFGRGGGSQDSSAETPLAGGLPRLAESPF
# ASSAY PROCEDURE: Antagonist activity at human GCGR expressed in CHO cells assessed as inhibition of glucagon-induced cAMP accumulation
# Format: functional, cell-based
QUANTITY KIND: pIC50
Convention used: pIC50 is expressed as -log10 of the molar concentration.

Solved entries (count: 2):
Dear colleague, I am looking for the recorded pIC50 of the following compound: O=C(O)CCNC(=O)c1ccc(Cn2nc(-c3ccc(OC(F)(F)F)cc3)cc2-c2cc(Cl)cc(Cl)c2)cc1
6.64

Bench note: what pIC50 did O=C(O)CNC(=O)c1ccc(Cn2nc(-c3ccc(OC(F)(F)F)cc3)cc2-c2ccc(OC(F)(F)F)cc2)cc1 show?
5.89

More entries:
Which pIC50 value belongs to O=C(O)CCNC(=O)c1ccc(Cn2nc(-c3cc(Cl)cc(Cl)c3)cc2-c2ccc(OC(F)(F)F)cc2)cc1 ?
6.96

Please give the measured pIC50 for this compound: O=C(O)CCNC(=O)c1ccc(Cn2nc(-c3ccc(OC(F)(F)F)cc3)cc2-c2ccc(OC(F)(F)F)cc2)cc1
6.43

I am curious: what pIC50 value has been reported for CC(C)(C)[C@H]1CC[C@H](c2cc(-c3ccc(OC(F)(F)F)cc3)nn2Cc2ccc(C(=O)Nc3nnn[nH]3)cc2)CC1 ?
6.77

// query pIC50 value for entry O=C(Nc1nnn[nH]1)c1ccc(Cn2nc(-c3cc(Cl)cc(Cl)c3)cc2-c2ccc(OC(F)(F)F)cc2)cc1
7.36

# input compound: CC(C)(C)[C@H]1CC[C@H](N(Cc2ccc(C(=O)NCCC(=O)O)cc2)C(=O)Nc2ccc(OC(F)(F)F)cc2)CC1 ; wanted: its pIC50
6.85

----------
# TESTED SYSTEM: Glucagon receptor (Mus musculus, UniProt Q61606)
# Sequence (Q61606 whole entry): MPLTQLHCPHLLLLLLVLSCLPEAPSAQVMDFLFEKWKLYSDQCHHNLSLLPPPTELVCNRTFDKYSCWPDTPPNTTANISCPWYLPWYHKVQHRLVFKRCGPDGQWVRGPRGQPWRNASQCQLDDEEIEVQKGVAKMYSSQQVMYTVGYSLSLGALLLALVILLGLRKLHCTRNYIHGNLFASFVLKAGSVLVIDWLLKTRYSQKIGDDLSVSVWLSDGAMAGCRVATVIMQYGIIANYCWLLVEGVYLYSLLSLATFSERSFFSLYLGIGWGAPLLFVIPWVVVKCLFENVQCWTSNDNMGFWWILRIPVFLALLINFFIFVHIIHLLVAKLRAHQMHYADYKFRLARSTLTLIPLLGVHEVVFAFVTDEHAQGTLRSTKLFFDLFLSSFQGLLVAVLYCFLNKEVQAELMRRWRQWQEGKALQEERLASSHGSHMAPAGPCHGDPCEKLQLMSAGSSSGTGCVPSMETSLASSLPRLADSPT
# ASSAY PROCEDURE: Antagonist activity at mouse GCGR assessed as inhibition of glucagon-induced cAMP accumulation
QUANTITY KIND: IC50 (nM)
Give a bare numeral; the unit nM is implied.

Given the entry O=C(O)CCNC(=O)c1ccc(Cn2nc(-c3cc(Cl)cc(Cl)c3)cc2-c2ccc(OC(F)(F)F)cc2)cc1 , report its measured IC50.
2000

----------
# TESTED SYSTEM: Glucagon receptor (Homo sapiens, UniProt P47871)
# ASSAY PROCEDURE: Antagonist activity at human GCGR expressed in CHO cells assessed as inhibition of glucagon-induced cAMP accumulation
# Format: functional, cell-based
QUANTITY KIND: pIC50
pIC50 (log units): -log10 of the concentration in mol/L.

Some entries whose results are on file:
Find the recorded pIC50 belonging to O=C(Nc1nn[nH]n1)c1ccc(Cn2nc(-c3ccc(OC(F)(F)F)cc3)cc2-c2ccc(OC(F)(F)F)cc2)cc1 and report it.
7.33

I have this compound here, CC(C)(C)[C@H]1CC[C@H](N(Cc2ccc(C(=O)Nc3nn[nH]n3)cc2)C(=O)Nc2ccc(OC(F)(F)F)cc2)CC1 , and I need its recorded pIC50.
7.34

New cases:
Name the recorded pIC50 for O=C(Nc1nn[nH]n1)c1ccc(Cn2nc(-c3ccc(OC(F)(F)F)cc3)cc2C2CCCCC2)cc1 .
6.80

# query: pIC50 of entry O=C(Nc1nnn[nH]1)c1ccc(Cn2nc(-c3ccc(OC(F)(F)F)cc3)cc2-c2cc(Cl)cc(Cl)c2)cc1
7.46

----------
# ASSAY PROCEDURE: Cmax in rhesus monkey at 2 mg/kg, po
# Assay type: ADME, organism-based, Macaca mulatta
# Set-up: dose 2 mg/kg, route oral
# CONDITION SET: in vivo
QUANTITY KIND: Cmax (µM)
Give just the numeric value; µM need not be written.

Reported Cmax for O=C(O)CCNC(=O)c1ccc(Cn2nc(-c3cc(Cl)cc(Cl)c3)cc2-c2ccc(OC(F)(F)F)cc2)cc1 : what is it?
4.2

----------
# ASSAY PROCEDURE: Plasma clearance in dog at 0.5 mg/kg, iv and 2 mg/kg, po
# Assay type: ADME, organism-based, Canis lupus familiaris
QUANTITY KIND: clearance (mL/min/kg)
The figure you give is taken to be in mL/min/kg; do not add the unit.

May I ask what clearance has been recorded for O=C(O)CCNC(=O)c1ccc(Cn2nc(-c3cc(Cl)cc(Cl)c3)cc2-c2ccc(OC(F)(F)F)cc2)cc1 ?
0.49
